This collection of values is drawn from the NIST ThermoML archive (doi:10.1021/je700282w).

For each record, write down the corresponding activity coefficient.
test: activity coefficient (dimensionless); of the first substance listed, at infinite dilution; xn = mol fraction of the nth substance listed; details: 313.15 K; 101 kPa; Liquid; Chromatography; x1 = 0
# output: bare number, no unit

Any idea what its activity coefficient is? The compound is Cc1cccc(C)c1 [1,3-dimethylbenzene] + CCCCn1cc[n+](C)c1.O=S(=O)([O-])C(F)(F)F
4.66

Endpoint output: activity coefficient of Cc1ccccc1C [1,2-dimethylbenzene] + CCCCn1cc[n+](C)c1.O=S(=O)([O-])C(F)(F)F . Value?
3.67

For the compound shown here, CCCCC [pentane] + CCCCn1cc[n+](C)c1.O=S(=O)([O-])C(F)(F)F , give the reported activity coefficient.
24.9

Data request, read-out activity coefficient, for CCCCCC [hexane] + CCCCn1cc[n+](C)c1.O=S(=O)([O-])C(F)(F)F
35.7
